For each of the compounds below, state its Population Fragmented Nuclei (%).
System: HEK-293T
experiment description: Multiplex assay against HEK293T
Type: toxicity, cell-based
experimental setup: human, 12 h, 1 µM, compound concentration 1 uM, replicate 1

Task: // Population Fragmented Nuclei (%) lookup, key: N[C@@]1(C(=O)O)CO[C@H]2[C@H](C(=O)O)[C@H]21
Result: 6%

Task: Which Population Fragmented Nuclei (%) value is on record for Oc1c(CN2CCN(c3ccccn3)CC2)cc(Cl)c2cccnc12 ?
Result: 6%

Task: Query: Population Fragmented Nuclei (%); subject: Cc1ccc(/C(=C\CN2CCCC2)c2ccccn2)cc1
Result: 6%

Task: Can you look up the measured Population Fragmented Nuclei (%) of CN(C)c1ccnc2sc3c(=O)n(N4CCCCCC4)cnc3c12 for me?
Result: 9%

Task: // Population Fragmented Nuclei (%) lookup, key: C[C@@H]1C[C@H]2[C@@H]3CCC4=CC(=O)C=C[C@]4(C)[C@@]3(F)[C@@H](O)C[C@]2(C)[C@@]1(O)C(=O)CO
Result: 8%

Task: Look at this compound and give its reported Population Fragmented Nuclei (%). CCCn1c(=O)c2[nH]c(C3CCCC3)nc2n(CCC)c1=O
Result: 7%

Task: Given CCOc1c2c(c(OCC)c3ncccc13)CN(c1ccc(CS(=O)(=O)NC(=O)Cc3ccccc3OC)cc1C)C2=O , state its recorded Population Fragmented Nuclei (%).
Result: 3%

Task: Query: Population Fragmented Nuclei (%); subject: CC1(COc2ccc3c(c2)ncn3-c2ccc3cccc(N4CCC(N)CC4)c3n2)COC1
Result: 14%

Task: Could you tell me which Population Fragmented Nuclei (%) is on file for CNC[C@H](O)c1ccc(O)c(O)c1 [EPINEPHRINE] ?
Result: 6%

Task: Endpoint output: Population Fragmented Nuclei (%) of Cc1ccc(-c2ccc(F)cc2COc2ccc(CCC(=O)O)cc2)cc1 . Value?
Result: 6%

Task: Query: Population Fragmented Nuclei (%); subject: CC(C)(C)c1ccc(S(=O)(=O)Nc2ccc(Cl)cc2C(=O)c2cc[n+]([O-])cc2)cc1
Result: 10%

Task: # input compound: Cc1ccccc1C(=O)Nc1ccc(C(=O)N2CCCC(N(C)C)c3ccccc32)cc1.Cl (centres undefined) ; wanted: its Population Fragmented Nuclei (%)
Result: 6%

Task: What value of Population Fragmented Nuclei (%) has been recorded for this entry: Cc1ccc(C(C)(O)c2nc3ccccc3s2)c(C)c1 (centres undefined)
Result: 19%

Task: Need Population Fragmented Nuclei (%) of O=C(O)Cc1ccccc1Nc1c(Cl)cccc1Cl , thanks.
Result: 7%

Task: Quick check: Population Fragmented Nuclei (%) of Cc1ccc(F)cc1C(=O)Nc1ccc(C(=O)N2Cc3cccn3Cc3ccccc32)c(Cl)c1 ?
Result: 5%

Task: For the compound CN(C)CCCc1cc(C(=O)Nc2ccc(-c3ccncc3)cc2)ccc1O.Cl.Cl , what Population Fragmented Nuclei (%) is on record?
Result: 5%

Task: If you can, please state the reported Population Fragmented Nuclei (%) value of O=S(=O)(c1ccccc1)c1cnc2c(N3CCNCC3)cccc2c1 [INTEPIRDINE] .
Result: 7%

Task: Which measured Population Fragmented Nuclei (%) value corresponds to COc1c(C)cc(NC(=O)c2nn(Cc3ccc(F)cc3)c3c2CN(C(=O)c2ccc[nH]2)C[C@]3(C)C(N)=O)cc1C ?
Result: 6%

Task: Population Fragmented Nuclei (%) for COc1cc(C(=O)N(CCCc2ccccc2)Cc2ccc(CC(=O)O)cc2)cc(OC)c1C ?
Result: 7%
